biological target: indoleamine 2, 3-dioxygenase (IDO1) (Homo sapiens); construct: human peripheral blood mononuclear cells (PBMC) (PB003F; host or cells: human PBMC stimulated with IFN-gamma and LPS; test: PBMC IDO1 assay (kynurenine detection via mass spectrometry); assay type: cell-based; conditions: human PBMC stimulated with IFN-γ and LPS, 2 days, kynurenine by mass spectrometry; read-out: IDO1 PBMC pIC50 (converted)
Sequence (P14902 whole entry): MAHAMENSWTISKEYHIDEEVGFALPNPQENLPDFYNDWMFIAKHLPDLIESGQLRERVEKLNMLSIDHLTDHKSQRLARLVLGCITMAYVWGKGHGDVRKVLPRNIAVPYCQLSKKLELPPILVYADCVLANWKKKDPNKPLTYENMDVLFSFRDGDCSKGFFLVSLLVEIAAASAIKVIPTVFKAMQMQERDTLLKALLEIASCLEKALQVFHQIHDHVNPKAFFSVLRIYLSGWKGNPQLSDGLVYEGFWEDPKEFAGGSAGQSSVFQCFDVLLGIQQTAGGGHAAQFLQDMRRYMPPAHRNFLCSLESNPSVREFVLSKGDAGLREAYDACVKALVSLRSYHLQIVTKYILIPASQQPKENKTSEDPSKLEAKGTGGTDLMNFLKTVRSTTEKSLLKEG
Assign a class from recorded IC50; defined classes: bottom end: < 10 nM; midrange: ≥ 10 nM and < 80 nM; top end: ≥ 80 nM

Example entries and their recorded answers appear below.
COMPOUND | QUALITATIVE LABEL
Cc1ccc(C(=O)NC(CC2CCN(C(=O)OC(C)(C)C)CC2)c2ccccc2)cc1 (centres unmarked) [Example 130] | midrange
CC(C)(C)OC(=O)N1CCC(CC(NC(=O)C2CCCC2)c2ccccc2)CC1 (centres unmarked) [Example 232] | top end
Cc1ccc(C(=O)NC(CC2CCN(C(=O)OC(C)(C)C)CC2)C2CCCC2)s1 (centres unmarked) [Example 59] | midrange

Input CC(C)(C)OC(=O)N1CCC(CC(NC(=O)c2ccc(F)cc2)c2cccnc2)CC1 (centres unmarked) [Example 207] ; output its category top end

Would you kindly repeat that for CC(C)(C)OC(=O)N1CCC(CC(NC(=O)c2ccc(F)cc2)c2ccncc2)CC1 (centres unmarked) [Example 208] ? top end

Would you kindly repeat that for COc1ccc(C(CC2CCN(C(=O)OC(C)(C)C)CC2)NC(=O)c2ccc(Cl)s2)cn1 (centres unmarked) [Example 15] ? bottom end

Would you kindly repeat that for COc1ccc([C@H](CC2CCN(C(=O)OC(C)(C)C)CC2)NC(=O)c2ccc(Cl)cc2)cn1 [Example 19] ? bottom end

Would you kindly repeat that for CC(C)(C)OC(=O)N1CCC(C[C@H](NC(=O)c2ccc(Cl)cc2)c2ccccc2)CC1 [Example 65] ? midrange

Would you kindly repeat that for COc1ccc([C@H](CC2CCN(S(=O)(=O)CC(C)C)CC2)NC(=O)c2ccc(Cl)s2)cn1 [Example 41] ? bottom end

Would you kindly repeat that for Cc1ccc(C(=O)NC(CC2CCN(C(=O)OC(C)(C)C)CC2)c2ccccc2)c(F)c1 (centres unmarked) [Example 218] ? top end

Would you kindly repeat that for CCOC(=O)N1CCC(CC(NC(=O)c2ccc(Cl)cc2)c2ccccc2)CC1 (centres unmarked) [Example 102] ? midrange

Would you kindly repeat that for COc1ccc([C@H](CC2CCN(C(=O)OC(C)(C)C)CC2)NC(=O)c2ccc(C)s2)cn1 [Example 20] ? bottom end

Would you kindly repeat that for CC1CCC(C(=O)NC(CC2CCN(C(=O)OC(C)(C)C)CC2)c2ccccc2)CC1 (centres unmarked) [Example 233] ? top end

Would you kindly repeat that for COc1ccc([C@@H](CC2CCN(C(=O)OC(C)(C)C)CC2)NC(=O)c2ccc(Cl)s2)cn1 [Example 70] ? midrange

Would you kindly repeat that for COc1ccc(C(CC2CCN(C(=O)OC(C)(C)C)CC2)NC(=O)c2ccc(F)cc2)cn1 (centres unmarked) [Example 54] ? midrange

----------
target: indoleamine 2, 3-dioxygenase (IDO1) (Homo sapiens); construct: human peripheral blood mononuclear cells (PBMC) (PB003F; host or cells: human PBMC stimulated with IFN-gamma and LPS; assay: PBMC IDO1 assay (kynurenine detection via mass spectrometry); assay type: cell-based; settings: human PBMC stimulated with IFN-γ and LPS, 2 days, kynurenine by mass spectrometry; read-out: IDO1 PBMC pIC50 (converted)
QUANTITY: IC50 (nM)
The answer is to be given in nM; state only the numeric part.

Below, 8 compounds whose answers are already recorded.
COMPOUND | QUANTITY | UNIT TAG | RECORDED NUMBER
CCc1ccc(C(=O)NC(CC2CCN(C(=O)OC(C)(C)C)CC2)c2ccccc2)cc1 (centres unmarked) | IC50 | nM | 31.6
CC(C)(C)OC(=O)N1CCC(CC(NC(=O)c2ccc(Cl)c(Cl)c2)c2ccccc2)CC1 (centres unmarked) | IC50 | nM | 316
COCCOc1ccc(C(CC2CCN(C(=O)OC(C)(C)C)CC2)NC(=O)c2ccc(F)cc2)cn1 (centres unmarked) | IC50 | nM | 316
CC(C)(C)OC(=O)N1CCC(CC(NC(=O)c2ccc(Cl)s2)c2n[nH]c(=O)o2)CC1 (centres unmarked) | IC50 | nM | 501
O=C(NC(CC1CCN(C(=O)OC2CCCCC2)CC1)c1ccccc1)c1ccc(Cl)cc1 (centres unmarked) | IC50 | nM | 79.4
CCCc1ccc(C(=O)NC(CC2CCN(C(=O)OC(C)(C)C)CC2)c2ccccc2)s1 (centres unmarked) | IC50 | nM | 20
CC(C)(C)OC(=O)N1CCC(CC(NC(=O)c2ccc(F)s2)C2CCCC2)CC1 (centres unmarked) | IC50 | nM | 31.6
CC(C)(C)OC(=O)N1CCC(CC(NC(=O)c2cc(Cl)cs2)c2ccccc2)CC1 (centres unmarked) | IC50 | nM | 100

Now look at this entry.
Value wanted: IC50 (indoleamine 2, 3-dioxygenase (IDO1) (Homo sapiens)) of entry CC(C)(C)OC(=O)N1CCC(CC(NC(=O)c2ccc(Cl)cc2)C2CCCCC2)CC1 (centres unmarked) 50.1
